Hi there, I'd appreciate the recorded koff for every entry that follows.
Biological target: T1, His-tagged cynomolgus TIGIT (cynomolgus, UniProt A0A7N9I9V4 89-209)
T1 construct: SPR analyte; also called cynomolgus TIGIT protein; not shown: His tag
T1 sequence (A0A7N9I9V4 entry or part of it): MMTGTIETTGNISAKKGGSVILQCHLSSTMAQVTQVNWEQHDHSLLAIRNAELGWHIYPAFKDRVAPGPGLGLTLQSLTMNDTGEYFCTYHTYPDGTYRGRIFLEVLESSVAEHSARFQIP
Assay: SPR (Biacore T200), antibody captured, His-tagged TIGIT analyte
Give bare numbers, in s⁻¹.

BINDER	koff [s⁻¹]
huTIGIT-6-4 (antibody, human IgG1, kappa, V domains shown, Humanized IgG; also called 6VH6.M7 + 6VL1.M1) VH: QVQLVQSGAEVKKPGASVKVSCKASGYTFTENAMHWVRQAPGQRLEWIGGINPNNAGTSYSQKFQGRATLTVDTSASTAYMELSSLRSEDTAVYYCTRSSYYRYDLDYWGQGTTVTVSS VL: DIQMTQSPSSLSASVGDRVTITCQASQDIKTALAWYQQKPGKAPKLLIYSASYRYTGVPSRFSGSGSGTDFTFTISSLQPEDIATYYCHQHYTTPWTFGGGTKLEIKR	0.013

Shifting focus to the binder that follows.
Challenge: GET /values?readout=koff&item= huTIGIT-19-1 (antibody, human IgG1, kappa, V domains shown, Humanized IgG; also called 19VH4.M9 + 19VL1.M4) VH: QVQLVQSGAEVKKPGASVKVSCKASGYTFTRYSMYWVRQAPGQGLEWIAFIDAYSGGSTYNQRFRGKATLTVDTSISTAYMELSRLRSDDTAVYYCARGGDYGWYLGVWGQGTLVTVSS VL: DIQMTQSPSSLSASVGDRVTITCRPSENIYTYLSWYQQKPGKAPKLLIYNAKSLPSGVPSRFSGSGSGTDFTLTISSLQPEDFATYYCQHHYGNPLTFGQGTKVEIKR
Response given: 3.7e-05
